Origin of the recorded values: PubChem BioAssay AID1963428

Test system: 171881-019-R-J1-PDC complex spheroid growth, % test/control;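 further: spheroids exposed to compounds for 7 days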
Experimental Details: Anticancer human tumor 171881-019-R-J1-PDC patient-derived invasive breast carcinoma cell line growth inhibition [Asc]
Condition Summary: second compound 0.316 µM; first compound 0.316 µM; hits give low values
Experimental Readout: viability, T/C (%)
Provide only the numeric value, understood in %.

Compound	viability, T/C (%)
O=C(c1cc(Cc2n[nH]c(=O)c3ccccc23)ccc1F)N1CCN(C(=O)C2CC2)CC1 + Cc1c(S(C)(=O)=O)c(-c2cc(F)cc(N3CCN(c4ccc(NS(=O)(=O)c5ccc(NC(CCN6CCC(C(=O)OCCCP(=O)(O)O)CC6)CSc6ccccc6)c(S(=O)(=O)C(F)(F)F)c5)cc4)CC3)c2)c(-c2ccc(Cl)cc2)n1C(C)C	134

In: Could you tell me which viability, T/C is on file for CNC(C)C(=O)NC1CN(S(=O)(=O)c2cccc(S(=O)(=O)N3CCC4CCC(C(=O)NC(c5ccccc5)c5ccccc5)N4C(=O)C(NC(=O)C(C)NC)C3)c2)CCC2CCC(C(=O)NC(c3ccccc3)c3ccccc3)N2C1=O (stereo not drawn) + Cc1c(S(C)(=O)=O)c(-c2cc(F)cc(N3CCN(c4ccc(NS(=O)(=O)c5ccc(NC(CCN6CCC(C(=O)OCCCP(=O)(O)O)CC6)CSc6ccccc6)c(S(=O)(=O)C(F)(F)F)c5)cc4)CC3)c2)c(-c2ccc(Cl)cc2)n1C(C)C ?
Out: 90.8

In: Using the record for C#Cc1c(F)ccc2cc(O)cc(-c3ncc4c(N5CC6CCC(C5)N6)nc(OCC56CCCN5CC(F)C6)nc4c3F)c12 (stereo not drawn) + CNC(C)C(=O)NC1CN(S(=O)(=O)c2cccc(S(=O)(=O)N3CCC4CCC(C(=O)NC(c5ccccc5)c5ccccc5)N4C(=O)C(NC(=O)C(C)NC)C3)c2)CCC2CCC(C(=O)NC(c3ccccc3)c3ccccc3)N2C1=O , report its viability, T/C.
Out: 109
